This listing pairs molecules with measured Ki.
molecular target: Rhesus PDE2A3 (Macaca mulatta, UniProt B3VTJ2); construct: made in house; host or cells: AD293 cells, transient transfection, pcDNA3.3-TOPO; lysate supernatant used as enzyme; assay: PDE2 fluorescence polarization (IMAP FP) inhibition assay, rhesus enzyme; assay type: biochemical, rhesus macaque; conditions: Lab A; read-out: Rhesus PDE2 Ki (nM) Lab A
Numbers only here, please. The scale is nM.

Illustrative cases are given below, each with its answer.
Cc1nc(-c2cnn(C(C)c3ccc(C(F)(F)F)cc3C)c2)cc(=O)[nH]1 (single isomer, unassigned) = 13.1
Cc1nc(-n2cc(CN3CCC(C(F)(F)F)CC3)cn2)cc(=O)[nH]1 = 19300
CCc1ccc(C(C)n2cc(-c3cc(=O)[nH]c(C)n3)cn2)c(Cl)c1 (single isomer, unassigned) [Example 100] = 384
Cc1ccc(C(C)n2cc(-c3cc(=O)[nH]c(C)n3)cn2)c(Cl)c1 (single isomer, unassigned) [Example 149] = 954
COc1cccc(Cc2nc(-c3cnn(C(C)c4ccc(C(F)(F)F)cc4F)c3)cc(=O)[nH]2)c1 (single isomer, unassigned) [Example 140] = 3

Fill in reported Ki for this entry: Cc1nc(-c2cnn(C(C)c3ccc(C(F)(F)F)cc3C(F)(F)F)c2)cc(=O)[nH]1 (single isomer, unassigned) [Example 144]
397

Fill in reported Ki for this entry: Cc1nc(-c2cnn(C(C)c3ccc(CC(F)(F)F)cc3F)c2)cc(=O)[nH]1 (single isomer, unassigned) [Example 96]
1260

Fill in reported Ki for this entry: Cc1nc(-c2cnn(C(C)c3ccc(C4CC4)cc3F)c2)cc(=O)[nH]1 (single isomer, unassigned) [Example 92]
212

Fill in reported Ki for this entry: COc1ccc(Cc2nc(-c3cnn(C(C)c4ccc(C(F)(F)F)cc4F)c3)cc(=O)[nH]2)cc1 (single isomer, unassigned) [Example 139]
52.1

Fill in reported Ki for this entry: COc1ccc(Cc2nc(-c3cnn(C(C)c4ccc(S(F)(F)(F)(F)F)cc4)c3)cc(=O)[nH]2)cc1OC (single isomer, unassigned) [Example 65]
22

Fill in reported Ki for this entry: COc1ccc(Cc2nc(-c3cnn(C(C)c4ccc(C(F)(F)F)cc4)c3)cc(=O)[nH]2)cc1OC (single isomer, unassigned) [Example 60]
3.6

Fill in reported Ki for this entry: COc1ccc(Cc2nc(-c3cnn(C(C)c4ccc(C(F)(F)F)cc4)c3)cc(=O)[nH]2)cc1OC (single isomer, unassigned) [Example 61]
2

Fill in reported Ki for this entry: CCc1nc(-c2cnn(C(C)c3ccc(C(F)(F)F)cc3F)c2)cc(=O)[nH]1 (stereo not shown) [Example 36]
25.7

====

This listing pairs compounds with measured Ki.
Target: human PDE2A1 (Homo sapiens, UniProt O00408)
Construct: GST; purchased BPS Bioscience (San Diego, Calif.) 60020; host or cells: insect cells
Sequence (O00408 1-920 isoform O00408-2): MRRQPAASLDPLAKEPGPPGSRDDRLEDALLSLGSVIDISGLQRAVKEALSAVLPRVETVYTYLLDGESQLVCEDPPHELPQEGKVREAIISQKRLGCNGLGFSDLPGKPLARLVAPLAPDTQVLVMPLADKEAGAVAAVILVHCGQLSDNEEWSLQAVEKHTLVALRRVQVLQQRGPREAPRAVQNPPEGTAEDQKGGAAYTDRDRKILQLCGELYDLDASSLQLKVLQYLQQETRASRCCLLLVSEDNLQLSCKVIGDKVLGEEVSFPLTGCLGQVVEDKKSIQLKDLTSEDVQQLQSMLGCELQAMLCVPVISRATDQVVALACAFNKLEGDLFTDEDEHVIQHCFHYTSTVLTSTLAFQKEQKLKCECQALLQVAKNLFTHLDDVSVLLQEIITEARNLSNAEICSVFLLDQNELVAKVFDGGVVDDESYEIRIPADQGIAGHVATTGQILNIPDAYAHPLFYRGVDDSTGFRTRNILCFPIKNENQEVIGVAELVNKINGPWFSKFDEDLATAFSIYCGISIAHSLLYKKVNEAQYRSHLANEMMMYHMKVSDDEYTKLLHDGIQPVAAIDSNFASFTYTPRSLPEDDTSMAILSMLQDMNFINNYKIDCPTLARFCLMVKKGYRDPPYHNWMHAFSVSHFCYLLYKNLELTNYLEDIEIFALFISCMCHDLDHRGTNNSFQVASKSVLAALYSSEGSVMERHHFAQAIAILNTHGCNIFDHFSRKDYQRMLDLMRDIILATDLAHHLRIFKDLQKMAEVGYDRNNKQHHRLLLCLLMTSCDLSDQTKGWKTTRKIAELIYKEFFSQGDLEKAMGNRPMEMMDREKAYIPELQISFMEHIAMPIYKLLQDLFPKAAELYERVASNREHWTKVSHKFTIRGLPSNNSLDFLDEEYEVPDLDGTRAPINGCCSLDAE
Assay: PDE2 IMAP FP inhibition assay, human enzyme (PDE selectivity panel format)
Type: biochemical
Conditions: Lab B; read-out: Human PDE2 Ki (nM) Lab B
Method: Selectivity for PDE2, as compared to other PDE families, was assessed using the IMAP® technology. Human PDE10A2 enzyme was prepared from cytosolic fractions of transiently transfected HEK cells. […] Assays for PDE 1 through 11 were performed in parallel at room temperature in 384-well microtiter plates with an incubation volume of 20.2 μL. […] The intrinsic PDE2 inhibitory activity of a compound which may be used in accordance with the present invention may be determined by these assays. […]
# number then unit; no other words

COc1ccc(Cc2nc(-c3cnn(C(C)c4ccc(C(F)(F)F)cc4F)c3)cc(=O)[nH]2)cc1OC (single isomer, unassigned) [Example 67] = 0.1 nM
COc1ccc(Cc2nc(-c3cnn(C(C)c4ccc(C(F)(F)F)cc4F)c3)cc(=O)[nH]2)cc1 (single isomer, unassigned) [Example 138] = 5.1 nM
Cc1nc(-n2cc(C(C)c3ccc(C4CC4)cc3)cn2)cc(=O)[nH]1 (stereo not shown) = 35.3 nM

Shift focus to the following entry.
Fill in reported Ki for this entry: COc1ccc(Cc2nc(-c3cnn(C(C)c4ccc(C(F)(F)F)cc4)c3)cc(=O)[nH]2)cc1OC (single isomer, unassigned) [Example 60]
1.1 nM

====

target: human PDE2A1 (Homo sapiens, UniProt O00408); construct: GST; purchased BPS Bioscience (San Diego, Calif.) 60020; host or cells: insect cells; experiment: PDE2 IMAP FP inhibition assay, human enzyme (PDE selectivity panel format); format: biochemical; details: Lab A; read-out: Human PDE2 Ki (nM) Lab A
Doc: threshold 50 nM (exclusive). Items with Ki beneath it return rule met; others return rule not met.

As a guide, the following entries are already answered.
Cc1nc(-c2cnn(C(C)c3ccc(C4CC4)cc3C)c2)cc(=O)[nH]1 (single isomer, unassigned) [Example 94] = rule not met
COc1ccc(Cc2nc(-c3cnn(C(C)c4ccc(C(F)(F)F)cc4F)c3)cc(=O)[nH]2)cc1OC (single isomer, unassigned) [Example 67] = rule met
CCc1ccc(C(CO)n2cc(-c3cc(=O)[nH]c(C)n3)cn2)c(F)c1 (single isomer, unassigned) [Example 112] = rule not met

Find out if reported Ki for COc1cccc(Cc2nc(-c3cnn(C(C)c4ccc(C(F)(F)F)cc4F)c3)cc(=O)[nH]2)c1 (single isomer, unassigned) [Example 141] is less than 50 nM
rule met

Find out if reported Ki for Cc1nc(-c2cnn(C(C)c3ccc(C(F)(F)F)cc3F)c2C)cc(=O)[nH]1 (single isomer, unassigned) [Example 72] is less than 50 nM
rule not met

Find out if reported Ki for Cc1nc(-c2cnn(C(C)c3ccc(C(F)(F)F)cc3F)c2)cc(=O)[nH]1 (single isomer, unassigned) [Example 136] is less than 50 nM
rule met

====

Biological target: Rhesus PDE2A3 (Macaca mulatta)
Construct: made in house; host or cells: AD293 cells, transient transfection, pcDNA3.3-TOPO; lysate supernatant used as enzyme
Sequence (B3VTJ2 1-941): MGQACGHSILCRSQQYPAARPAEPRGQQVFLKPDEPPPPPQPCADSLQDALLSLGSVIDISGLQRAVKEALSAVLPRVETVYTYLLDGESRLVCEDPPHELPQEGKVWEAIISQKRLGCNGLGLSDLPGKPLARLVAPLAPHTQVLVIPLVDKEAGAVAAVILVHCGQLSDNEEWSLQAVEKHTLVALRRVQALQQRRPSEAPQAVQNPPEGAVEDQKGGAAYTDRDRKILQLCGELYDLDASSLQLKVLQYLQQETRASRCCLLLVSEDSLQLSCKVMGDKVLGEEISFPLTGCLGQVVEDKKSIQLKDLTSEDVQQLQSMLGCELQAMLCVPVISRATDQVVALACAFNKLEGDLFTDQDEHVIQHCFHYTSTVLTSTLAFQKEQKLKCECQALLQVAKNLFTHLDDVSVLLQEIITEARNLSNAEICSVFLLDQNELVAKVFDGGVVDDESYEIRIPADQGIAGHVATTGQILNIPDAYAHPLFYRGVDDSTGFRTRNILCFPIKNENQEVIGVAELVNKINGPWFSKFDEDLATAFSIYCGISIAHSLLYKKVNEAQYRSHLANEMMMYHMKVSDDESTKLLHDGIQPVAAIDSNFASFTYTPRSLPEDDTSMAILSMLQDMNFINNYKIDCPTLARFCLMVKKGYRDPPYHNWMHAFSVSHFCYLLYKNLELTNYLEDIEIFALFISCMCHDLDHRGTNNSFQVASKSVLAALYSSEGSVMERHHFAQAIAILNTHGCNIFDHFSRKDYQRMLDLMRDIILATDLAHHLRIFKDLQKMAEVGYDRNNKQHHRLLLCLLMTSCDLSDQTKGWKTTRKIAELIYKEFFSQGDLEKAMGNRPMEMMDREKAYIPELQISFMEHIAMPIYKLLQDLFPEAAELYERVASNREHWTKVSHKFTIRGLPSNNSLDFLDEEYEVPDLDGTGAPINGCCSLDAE
Assay: PDE2 fluorescence polarization (IMAP FP) inhibition assay, rhesus enzyme
Assay type: biochemical, rhesus macaque
Conditions: Lab B; read-out: Rhesus PDE2 Ki (nM) Lab B
This listing pairs compounds with measured Ki.
Numbers only here, please. The scale is nM.

Illustrative cases are given below, each with its answer.
COc1ccc(Cc2nc(-c3cnn(C(C)c4ccc(C(F)(F)F)cc4F)c3)cc(=O)[nH]2)cc1 (single isomer, unassigned) [Example 138] = 1.6
COc1cc(C(F)(F)F)ccc1[C@@H](C)n1cc(-c2cc(=O)[nH]c(C)n2)cn1 (single isomer, unassigned) [Example 1] = 301

Fill in reported Ki for this entry: Cc1nc(-n2cc([C@]3(c4ccc(C(F)(F)F)cc4)CCCO3)cn2)cc(=O)[nH]1 (single isomer, unassigned) [Example 22]
41.9

====

molecular target: human PDE2A1 (Homo sapiens, UniProt O00408); construct: GST; purchased BPS Bioscience (San Diego, Calif.) 60020; host or cells: insect cells; test: PDE2 IMAP FP inhibition assay, human enzyme (PDE selectivity panel format); format: biochemical; conditions: Lab A; read-out: Human PDE2 Ki (nM) Lab A
This listing pairs compounds with measured Ki.
Numbers only here, please. The scale is nM.

Illustrative cases are given below, each with its answer.
CCc1ccc(C(CO)c2cnn(-c3cc(=O)[nH]c(C)n3)c2)c(Cl)c1 (single isomer, unassigned) [Example 121] = 8.4
Cc1nc(-c2cnn(C(C)c3ccc(C(F)(F)F)cc3Cl)c2)cc(=O)[nH]1 (single isomer, unassigned) [Example 83] = 5.1
CCC(c1ccc(C(F)(F)F)cc1F)n1cc(-c2cc(=O)[nH]c(C)n2)cn1 (centres unmarked) [Example 33] = 32
COc1cccc(Cc2nc(-c3cnn(C(C)c4ccc(C(F)(F)F)cc4F)c3)cc(=O)[nH]2)c1 (single isomer, unassigned) [Example 140] = 2.6

Tell me Ki of Cc1nc(-n2cc([C@H](CO)c3ccc(C(F)(F)F)cc3F)cn2)cc(=O)[nH]1 (single isomer, unassigned) [Example 20] when tested on human PDE2A1 (Homo sapiens, UniProt O00408).
32.3

Tell me Ki of Cc1nc(-c2cnn(C(C)c3ccc(C(F)(F)F)cc3F)c2C)cc(=O)[nH]1 (single isomer, unassigned) [Example 71] when tested on human PDE2A1 (Homo sapiens, UniProt O00408).
16.5

Tell me Ki of CCCc1ccc([C@](C)(O)c2cnn(-c3cc(=O)[nH]c(C)n3)c2)c(F)c1 (single isomer, unassigned) [Example 14] when tested on human PDE2A1 (Homo sapiens, UniProt O00408).
1400
